Recorded values, source ChEMBL document CHEMBL4422655.

# system.under.test: Amine oxidase [flavin-containing] A (Homo sapiens, UniProt P21397)
# Sequence (P21397 whole entry): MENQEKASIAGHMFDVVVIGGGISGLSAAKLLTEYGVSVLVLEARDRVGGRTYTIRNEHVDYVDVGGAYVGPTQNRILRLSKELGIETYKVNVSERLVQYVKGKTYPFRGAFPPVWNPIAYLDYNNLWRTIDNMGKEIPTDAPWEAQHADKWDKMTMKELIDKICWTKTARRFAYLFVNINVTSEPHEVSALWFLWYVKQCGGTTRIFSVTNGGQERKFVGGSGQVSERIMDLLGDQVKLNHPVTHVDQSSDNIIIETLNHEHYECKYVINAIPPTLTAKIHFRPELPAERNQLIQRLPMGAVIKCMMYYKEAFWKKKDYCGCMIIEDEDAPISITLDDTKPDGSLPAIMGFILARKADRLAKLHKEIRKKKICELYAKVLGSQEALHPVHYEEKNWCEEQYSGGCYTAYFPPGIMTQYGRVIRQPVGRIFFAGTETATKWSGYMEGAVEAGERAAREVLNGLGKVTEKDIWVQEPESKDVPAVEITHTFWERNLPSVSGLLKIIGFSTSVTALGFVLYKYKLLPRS
# experimental.details: Inhibition of human recombinant MAO-A expressed in baculovirus infected BTI insect cells using kynuramine as substrate assessed as residual activity at 10 uM after 20 mins by spectrophotometric analysis relative to control
# experimental.conditions: read-out: Activity
Flag rule - activity at 10 µM less than 20% flags class 1; the remaining entries get class 0.

Input: Does the reported activity at 10 µM of the following compound sit strictly below 20%? "O=c1ccc2cc3ccoc3cc2o1"
Output: class 0

Input: Does the reported activity at 10 µM of the following compound sit strictly below 20%? "O=c1ccc2ccc3occc3c2o1"
Output: class 1

Input: Does the reported activity at 10 µM of the following compound sit strictly below 20%? "CC(C)=CCOc1c2ccoc2cc2oc(=O)ccc12"
Output: class 0

Input: Does the reported activity at 10 µM of the following compound sit strictly below 20%? "COc1cc2ccc(=O)oc2cc1O"
Output: class 0

Input: Does the reported activity at 10 µM of the following compound sit strictly below 20%? "O=c1ccc2c(ccc3ccoc32)o1"
Output: class 1

Input: Does the reported activity at 10 µM of the following compound sit strictly below 20%? "CC(C)=CCc1c(O)ccc2ccc(=O)oc12"
Output: class 1

----------
# system.under.test: Amine oxidase [flavin-containing] A (Homo sapiens, UniProt P21397)
# experimental.details: Inhibition of human recombinant MAO-A expressed in baculovirus infected BTI-TN-5B1-4 insect cells using p-tyramine as substrate after 15 mins by resorufin dye-based spectrometric analysis
quantity: IC50
Give the value; after it, write the unit.

// IC50 lookup, molecule = "Oc1ccc(/C=C/c2cc(O)cc3c2[C@@H](c2cc(O)cc(O)c2)[C@H](c2ccc(O)cc2)O3)cc1" , result: 19.6 µM

----------
# system.under.test: UniProtKB P21397
# experimental.details: Inhibition of human MAO-A using kynuramine as substrate after 30 mins by spectrophotometric analysis
quantity: pIC50
// returns pIC50 (minus log10 of molar concentration), number only

// pIC50 lookup, compound = "COc1cc(O)c2c(=O)c(O)c(-c3ccc(O)cc3)oc2c1" , result: 7.29

----------
# system.under.test: Amine oxidase [flavin-containing] A (Homo sapiens)
# Sequence (P21397 whole entry): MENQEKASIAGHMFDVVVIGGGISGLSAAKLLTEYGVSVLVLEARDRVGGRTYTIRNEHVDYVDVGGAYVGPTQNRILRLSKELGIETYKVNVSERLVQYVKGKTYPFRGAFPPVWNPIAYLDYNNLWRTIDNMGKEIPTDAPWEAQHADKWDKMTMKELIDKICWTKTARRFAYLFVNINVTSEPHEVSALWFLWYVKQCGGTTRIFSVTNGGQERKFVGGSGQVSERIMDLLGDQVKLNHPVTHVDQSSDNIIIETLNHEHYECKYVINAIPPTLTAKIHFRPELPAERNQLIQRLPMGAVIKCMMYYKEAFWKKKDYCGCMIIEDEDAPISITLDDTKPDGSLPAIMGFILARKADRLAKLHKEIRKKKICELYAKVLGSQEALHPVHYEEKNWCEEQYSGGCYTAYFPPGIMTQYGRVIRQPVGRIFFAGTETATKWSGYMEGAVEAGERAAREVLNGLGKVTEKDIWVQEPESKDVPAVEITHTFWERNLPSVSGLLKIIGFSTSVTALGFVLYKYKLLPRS
Each entry below lists one item and its recorded pKi value.
// returns pKi (minus log10 of molar concentration), number only

O=c1ccc2ccc3occc3c2o1 [ANGELICIN] | 6.34

// pKi lookup, compound = CC(C)=CCc1c(O)ccc2ccc(=O)oc12 [OSTHENOL] , result: 6.59
